All values here come from PubChem BioAssay (NCI).

system: OVCAR-8 ovarian; assay: NCI tumour cell line growth inhibition, 48 h
So I've got a bunch of molecules here, and I need their TGI values.

molecule	TGI
Cc1ccc(C2=NN(c3ccc(S(=O)(=O)NC(=O)NCc4ccccc4)cc3)C(c3ccc(N(C)C)cc3)C2)c(C)c1 (stereo not given)	> 100 µM

Return reported TGI values for all items listed beneath this line.
1. NS(=O)(=O)c1ccc(N=Nc2c(O)[nH]c3ccc(C(=O)NCCCn4ccnc4)cc23)cc1
2. CCOC(=O)c1c(-c2ccccc2)n2c(=O)cc(C)c3c(O)c(O)cc1c32
3. O=C(c1ccccc1)n1cc(/C=C/[N+](=O)[O-])c2ccccc21
4. Cc1nc2ccc(-n3ncc(C(=O)c4cc5ccccc5[nH]4)c3N)cc2[nH]1

1. > 25 µM
2. 22.1 µM
3. > 100 µM
4. > 100 µM

====

test system: TK-10 renal; experiment: NCI tumour cell line growth inhibition, 48 h
observable: TGI

Would you please look over these solved cases?
molecule	TGI
CCCCCCC(=O)OC[n+]1ccc(-c2c(COC(=O)NC(C)C)c(COC(=O)NC(C)C)c3n2CCC3)cc1	> 100 µM
O=c1ccn(C/C=C/c2ccccc2)c(=S)n1C/C=C/c1ccccc1	> 100 µM
CC/C(Cl)=N\OC(=O)Nc1ccc(F)c(Cl)c1	31.3 µM
CCc1ccc(Oc2c(-c3ccc(OCCc4cccc(C(F)(F)F)c4)cc3O)n[nH]c2C(F)(F)F)cc1	11.5 µM
O=C1CSC(c2ccccc2)N1c1ccc(-c2ccc(-n3c(-c4ccccc4)nc4ccccc4c3=O)cc2)cc1 (centres undefined)	> 100 µM
COc1ccc(S(=O)(=O)N/N=C(\C)CN2C(=O)c3ccccc3C2=O)cc1OC	> 100 µM

Return reported TGI values for all items listed beneath this line.
1. CCOC(=O)C(C(=O)OCC)c1cc(-c2cc3ccccc3o2)oc(=O)c1C#N
2. CN(C)CC1(Cc2ccccc2)CC/C(=C\c2ccccc2)C1=O (centres undefined)
3. CC(C)[C@@]12C[C@@H](OC(=O)COC(=O)c3ccccc3)[C@@](C)(O1)[C@@H]1CC[C@@H](C)[C@H]1[C@@H]2OC(=O)/C=C/c1ccccc1
4. O=C1/C(=C/c2ccc(Cl)cc2)CN(Cc2cn(CCCNc3ccnc4cc(Cl)ccc34)nn2)C/C1=C\c1ccc(Cl)cc1
5. O=C(CCN1CCCCC1)c1csc2ccccc12

["52.1 µM", "> 100 µM", "> 100 µM", "3.15 µM", "> 100 µM"]

====

system: SF-539 CNS; assay: NCI tumour cell line growth inhibition, 48 h; in the data active = GI50 below about 0.43 µM; inactive = the rest
Returns: one label drawn from yes (active), no (inactive)

Answered cases to consult:
compound	experimental system	category label
CC(C)c1cnc(-c2cc(Cl)ccc2F)cc1Nc1ccncc1C(=O)NC(CO)CO	SF-539 CNS	no
NS(=O)(=O)c1ccc(N=Nc2c(O)[nH]c3ccc(C(=O)NCCCn4ccnc4)cc23)cc1	SF-539 CNS	no
O=S(=O)(NCCNc1nccc(-c2c(-c3ccc(F)cc3)nc3sccn23)n1)c1ccc(O)cc1	SF-539 CNS	no
CCCCCCCCCCCCCCCC(=O)NS(=O)(=O)OC[C@H]1O[C@@H](n2cnc3c(N)ncnc32)[C@H](O)[C@@H]1O	SF-539 CNS	yes
CCCCCOC(=O)Nc1nc(=O)n(C2OC(C)C(O)C2O)cc1F (stereo not drawn)	SF-539 CNS	no
Cn1c2c(c3ccccc31)CCN1C[C@@H]3CCCC[C@H]3C[C@@H]21	SF-539 CNS	no

For "CC(C)[C@@]12C[C@@H](OC(=O)COC(=O)c3ccccc3)[C@@](C)(O1)[C@@H]1CC[C@@H](C)[C@H]1[C@@H]2OC(=O)/C=C/c1ccccc1" , which call appears in the assay record? no

For "Cn1cc(-c2csc(-c3ccccc3)n2)c2cccnc21" , which call appears in the assay record? no

====

system: K-562 leukemia; test: NCI tumour cell line growth inhibition, 48 h
So I've got a bunch of compounds here, and I need their TGI values.

Return reported TGI values for all items listed beneath this line.
1. CC(C)CCNC(=O)c1ccc(CNC(=O)/C=C/c2ccc3ccccc3c2)cc1
2. COc1ccc2[nH]c(C(=O)OCc3ccc4c(Br)cc(Br)c(O)c4n3)cc2c1
3. CC(C)=CCC/C(C)=C/Cc1c2c(c3oc(-c4ccc(O)c(O)c4)c(O)c(=O)c3c1O)C=CC(C)(C)O2
4. CCOC(=O)c1sc2nc(SC)nc3c2c1NC(=O)CN3c1ccc(F)cc1
5. C=C(C)COc1ccc2c(c1)CCC1C2CCC2(C)C(=O)/C(=N/O)CC12 (centres undefined)
6. CCCCCc1cc(/C=C2/N=C(c3ccc[nH]3)C=C2OC)[nH]c1C
7. NC(=O)C1=C(O)[C@@]2(O)C(=O)C3=C(O)c4c(O)cccc4CC3C[C@H]2CC1=O (some centres undefined)
8. [O-]c1c2c(nn1-c1ccc(F)cc1)c1ccccc1c[n+]2Cc1ccccc1

["> 100 µM", "4.94 µM", "9.63 µM", "> 100 µM", "9.96 µM", "0.259 µM", "> 61.5 µM", "81.4 µM"]

====

test system: SNB-75 CNS; test: NCI tumour cell line growth inhibition, 48 h
Classify by measured TGI: label 1 if it is equal to or exceeds 4 µM, label 0 if it is smaller.

Determine whether measured TGI meets or exceeds 4 µM for "[O-]c1c2c(nn1-c1ccc(F)cc1)c1ccccc1c[n+]2Cc1ccccc1" label 1

Determine whether measured TGI meets or exceeds 4 µM for CCCCCCCCCCCCCCCCCCN(C)CC(COC)OP(=O)([O-])OCC[N+](C)(C)C (stereo not given) label 0

Determine whether measured TGI meets or exceeds 4 µM for CC1(C)CC(=O)c2c(-c3ccc(Cl)cc3)c(C#N)c(=S)n(C3OC(CO)C(O)C(O)C3O)c2C1 (stereo not given) label 1

Determine whether measured TGI meets or exceeds 4 µM for O=C(O)CN1C(=O)OC(c2ccccc2)C1=O (stereo not given) label 1

Determine whether measured TGI meets or exceeds 4 µM for "NC(=O)c1c[nH]c2ncnc(N)c12" label 1

====

So I've got a bunch of molecules here, and I need their TGI values.
system: HT29 colon; assay: NCI tumour cell line growth inhibition, 48 h
Give bare numbers, in µM.

Would you please look over these solved cases?
molecule	units of measure	TGI
Cn1c2c(c3ccccc31)CCN1C[C@@H]3CCCC[C@H]3C[C@@H]21	µM	8.06
CC/C(Cl)=N\OC(=O)Nc1ccc(F)c(Cl)c1	µM	55.2
CCCCCc1cc(/C=C2/N=C(c3ccc[nH]3)C=C2OC)[nH]c1C	µM	0.143
COc1ccccc1/C=C1\CCC(Cc2ccccc2)(CN(C)C)C1=O (centres undefined)	µM	5.55
CC1(C)CC[C@]23CC[C@]4(C)[C@H](CC[C@@H]5[C@@]6(C)CCCNC(C)(C)[C@@H]6CC[C@]54C)[C@H]2[C@H]1OC3	µM	3.63

Return reported TGI values for all items listed beneath this line.
1. CCOC(=O)C#Cc1cccc(C#CC(=O)OCC)c1
2. C/C=C\C1OC1(C)c1cc(=O)c2c(C)cc3c(c2o1)C(=O)c1c(O)c(C2CC(C)(N(C)C)C(OC(C)=O)C(C)O2)cc(C2CC(N(C)C)C(O)C(C)O2)c1C3=O (centres undefined)
3. CCN1CCN(Cc2ccc(Nc3ncc(F)c(-c4cc(F)c5nc(C)n(C(C)C)c5c4)n3)nc2)CC1

1. 9.07
2. 1.93
3. 10.8

Return reported TGI values for all items listed beneath this line.
1. CN(C)CCC(=O)[C@@]1(O)CC[C@H]2[C@@H]3CC=C4C[C@@H](O)CC[C@]4(C)[C@H]3CC[C@@]21C
2. NC(=O)C1=C(O)[C@@]2(O)C(=O)C3=C(O)c4c(O)cccc4CC3C[C@H]2CC1=O (some centres undefined)

1. 37.5
2. 7.34

====

test system: HL-60(TB) leukemia; experiment: NCI tumour cell line growth inhibition, 48 h
Classify by measured TGI: met if it is equal to or exceeds 30 µM, not met if it is smaller.

Answered cases to consult:
compound	category label
Cc1csc2nc(-c3cc([N+](=O)[O-])c(Cl)cc3Cl)c(/C=N/N=C(N)N)n12	not met
CC1CC(C)(O)C2C3(C)CCCC2(COC3=O)C12CCC1(CCOC1=O)O2 (centres undefined)	met
COc1ccc(C2=C(c3ccccc3)C(=O)N3CCCC3C2)cc1 (centres undefined)	met
COC(=O)CN1Cc2cc(C)cc(c2O)CN(CC(=O)OC)Cc2cc(C)cc(c2O)CN(CC(=O)OC)Cc2cc(C)cc(c2O)CN(CC(=O)OC)Cc2cc(C)cc(c2O)C1	not met
C=CC(C)(C)NC(C(=O)N1CCC[C@H]1c1nc(-c2nc(C(=O)OCC=C(C)C)c(C)o2)c(C)o1)C(C)C (some centres undefined)	met
Cc1nc2ccc(-n3ncc(C(=O)c4cc5ccccc5[nH]4)c3N)cc2[nH]1	met

Determine whether measured TGI meets or exceeds 30 µM for "COc1cccc(CCn2c(N)c(-c3cc(Cl)cc(Cl)c3)c3ccc([N+](=O)[O-])cc3c2=O)c1" not met

Determine whether measured TGI meets or exceeds 30 µM for "O=C(O)c1ccc(CSc2nc3ccccc3[nH]2)cc1" met

Determine whether measured TGI meets or exceeds 30 µM for "CC(C)c1cnc(-c2cc(Cl)ccc2F)cc1Nc1ccncc1C(=O)NC(CO)CO" met

Determine whether measured TGI meets or exceeds 30 µM for "C#CN1C(=O)c2c(c(-c3ccccc3)c(-c3ccc(Oc4ccc(-c5c(-c6ccccc6)c6c(c(-c7ccccc7)c5-c5ccccc5)C(=O)N(C#C)C6=O)cc4)cc3)c(-c3ccccc3)c2-c2ccccc2)C1=O" met

Determine whether measured TGI meets or exceeds 30 µM for "CN1CCCS/C1=C1/SC(=S)N(c2ccccc2)C1=O" met
